Target: Trace amine-associated receptor 1 (Homo sapiens) (UniProt Q96RJ0)
Sequence (Q96RJ0 whole entry, looked up): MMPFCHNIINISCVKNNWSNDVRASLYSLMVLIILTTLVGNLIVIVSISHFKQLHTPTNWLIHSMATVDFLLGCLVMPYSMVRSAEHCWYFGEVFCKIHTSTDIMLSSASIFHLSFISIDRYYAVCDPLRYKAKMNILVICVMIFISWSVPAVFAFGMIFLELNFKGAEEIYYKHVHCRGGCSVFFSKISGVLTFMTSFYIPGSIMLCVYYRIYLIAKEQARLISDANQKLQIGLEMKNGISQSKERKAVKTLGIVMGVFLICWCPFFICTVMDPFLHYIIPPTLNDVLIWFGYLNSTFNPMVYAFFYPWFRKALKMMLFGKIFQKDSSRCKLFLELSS
Assay: TAAR1 desensitization by agonist compounds, SAR follow-up, counter-screen for TAAR1 agonist project, cell-based, fluorescence, human, MedChem round 1 (AID 743490)
Details: hTAAR1 cells, desensitization of agonist response
Activity calls are given as the source filed them. The rule behind the calls is not given here.
# valid calls are active, inactive; nothing else

{"compound": "CC(CN1CCCC1Cc1ccccc1)C(=O)c1ccc2c(c1)OCCO2 (stereo unspecified)", "category": "inactive"}
{"compound": "O=C(CCN1C[C@@H](C(=O)O)[C@H](c2cccc(F)c2)C1)NC1CC1", "category": "inactive"}
{"compound": "O=C(CCN1C[C@@H](C(=O)O)[C@H](c2ccccc2)C1)NC1CCCC1", "category": "inactive"}
{"compound": "O=C(CCN1CCC(O)(c2ccccc2)C1)c1ccc2c(c1)OCCO2 (stereo unspecified)", "category": "inactive"}
{"compound": "CC1CN(CCC(=O)c2ccc3c(c2)OCCO3)CC1c1ccccc1 (stereo unspecified)", "category": "active"}
{"compound": "O=C(CCN1CCC(c2ccccc2)C1)c1ccccc1 (stereo unspecified)", "category": "inactive"}

Request: Per the records of this test, what outcome belongs to `O=C(CCN1C[C@@H](C(=O)O)[C@H](c2ccccc2)C1)NCc1cccs1` ?
Result: inactive

Request: Per the records of this test, what outcome belongs to `NC(=O)CCN1C[C@H](c2ccccc2)[C@@H]2[C@H]1C1CCN2CC1` ?
Result: inactive

Request: Per the records of this test, what outcome belongs to Cc1ccc(C(=O)CCN2CCC(c3ccccc3)C2)cc1 (stereo unspecified) ?
Result: inactive

Request: Per the records of this test, what outcome belongs to O=C(CCN1CCC(O)(c2ccc(F)cc2)C1)c1ccc2c(c1)OCCO2 (stereo unspecified) ?
Result: inactive

Request: Per the records of this test, what outcome belongs to CC(CN1CCC(c2ccccc2)C1)C(=O)c1ccc2c(c1)OCCO2 (stereo unspecified) ?
Result: inactive

Values from PubChem BioAssay AID743490
